Measured on: Cannabinoid receptor 1 (Mus musculus)
Assay details: Agonist activity at CB1 receptor in electrically-stimulated Swiss mouse vas deferens
Type: functional, tissue-based
I'd be grateful if you could share measured agonist potency (pEC50) for these entries.

Task: Give recorded agonist potency (pEC50). c1ccc(Cc2noc(-c3cn(CCN4CCOCC4)c4ccccc34)n2)cc1
Output: 7

Task: Give recorded agonist potency (pEC50). c1ccc(Cc2noc(-c3cn(CCN4CCCCC4)c4ccccc34)n2)cc1
Output: 5.6

Task: Give recorded agonist potency (pEC50). c1ccc(-c2noc(-c3cn(CCN4CCOCC4)c4ccccc34)n2)cc1
Output: 6.47

Task: Give recorded agonist potency (pEC50). c1ccc(Cc2noc(-c3cn(CCN4CCCC4)c4ccccc34)n2)cc1
Output: 7.2

----------
Measured on: Cannabinoid receptor 1 (Mus musculus) (UniProt P47746)
Sequence (P47746 whole entry): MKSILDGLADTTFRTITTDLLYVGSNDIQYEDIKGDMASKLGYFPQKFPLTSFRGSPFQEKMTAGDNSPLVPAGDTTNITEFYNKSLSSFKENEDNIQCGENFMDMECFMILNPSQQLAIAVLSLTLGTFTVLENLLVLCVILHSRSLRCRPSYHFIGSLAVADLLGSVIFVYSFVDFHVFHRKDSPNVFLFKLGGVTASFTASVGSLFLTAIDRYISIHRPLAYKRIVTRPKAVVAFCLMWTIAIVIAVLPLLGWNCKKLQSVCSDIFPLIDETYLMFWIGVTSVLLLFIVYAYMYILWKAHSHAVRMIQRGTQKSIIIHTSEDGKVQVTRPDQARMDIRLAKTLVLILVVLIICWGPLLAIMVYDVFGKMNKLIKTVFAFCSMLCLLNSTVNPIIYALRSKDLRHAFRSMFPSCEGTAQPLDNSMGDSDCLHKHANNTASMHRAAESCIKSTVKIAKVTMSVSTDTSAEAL
Assay details: Agonist activity at CB1 receptor in electrically-stimulated Swiss mouse vas deferens at 1.0 uM
Assay type: functional, tissue-based
Parameter: inhibition (%)
Give your result in % as a bare value.

Task: Give recorded inhibition. O=C(c1nc(Cc2ccccc2)no1)c1cn(CCN2CCOCC2)c2ccccc12
Output: 22.4

Task: Give recorded inhibition. O=C(c1nc(-c2ccccc2)no1)c1cn(CCN2CCOCC2)c2ccccc12
Output: 44.3

Task: Give recorded inhibition. COc1ccc(Cc2noc(-c3cn(CCN4CCOCC4)c4ccccc34)n2)cc1
Output: 39.2

Task: Give recorded inhibition. c1csc(Cc2noc(-c3cn(CCN4CCOCC4)c4ccccc34)n2)c1
Output: 81

Task: Give recorded inhibition. Brc1ccc(Cc2noc(-c3cn(CCN4CCOCC4)c4ccccc34)n2)cc1
Output: 58

Task: Give recorded inhibition. c1ccc2cc(Cc3noc(-c4cn(CCN5CCOCC5)c5ccccc45)n3)ccc2c1
Output: 95.6

Task: Give recorded inhibition. O=C1NC(Cn2cc(-c3nc(Cc4ccccc4)no3)c3ccccc32)CO1 (stereo not drawn)
Output: 15.8

Task: Give recorded inhibition. c1ccc(-c2ccc(-c3noc(-c4cn(CCN5CCOCC5)c5ccccc45)n3)cc2)cc1
Output: 11.4

Task: Give recorded inhibition. CCCCCn1cc(-c2nc(Cc3ccccc3)no2)c2ccccc21
Output: 100

Task: Give recorded inhibition. O=C(O)CCCCn1cc(-c2nc(Cc3ccc4ccccc4c3)no2)c2ccccc21
Output: 53.6

Task: Give recorded inhibition. c1ccc(Cc2noc(-c3cn(CCN4CCOCC4)cn3)n2)cc1
Output: 46.8

Task: Give recorded inhibition. CCOC(=O)CCCCn1cc(-c2nc(Cc3ccc4ccccc4c3)no2)c2ccccc21
Output: 41.6

Task: Give recorded inhibition. c1ccc2cc(Cc3noc(-c4cn(CCN5CCCC5)c5ccccc45)n3)ccc2c1
Output: 78.6

Task: Give recorded inhibition. c1ccc(CCc2noc(-c3cn(CCN4CCOCC4)c4ccccc34)n2)cc1
Output: 90

Task: Give recorded inhibition. Clc1ccccc1Cc1noc(-c2cn(CCN3CCOCC3)c3ccccc23)n1
Output: 95

Task: Give recorded inhibition. O=C(Cn1cc(-c2nc(-c3ccccc3)no2)c2ccccc21)N1CCOCC1
Output: -5.29

Task: Give recorded inhibition. O=C(Cn1cc(-c2nc(Cc3ccccc3)no2)c2ccccc21)N1CCOCC1
Output: 17

Task: Give recorded inhibition. CC(=O)Oc1cn(CCN2CCOCC2)c2ccccc12
Output: 81.8
